Each recorded value in this set is attributed to patent US10858312B1.

Test system: Jurkat (acute T-cell leukemia)
assay details: CCK8 growth inhibition of leukemia cells, Jurkat
Assay type: cell-based
test context: Homo sapiens, Jurkat, 48 h, read-out: IC50 Jurkat
Note to self: IC50 under 20 µM means 1 (yes), ties and anything higher get 0 (no).

Just wondering, is IC50 of CCNC(=O)O/C=C1\C(=O)C(O)=C(C(C)C)c2cc(C)c(-c3c(C)cc4c(c3O)/C(=C/OC(=O)NCC)C(=O)C(O)=C4C(C)C)c(O)c21 [Compound 2] below 20 µM? 0 (no)

Just wondering, is IC50 of Cc1cc(-c2ccc(NC(=O)O/C=C3\C(=O)C(O)=C(C(C)C)c4cc(C)c(-c5c(C)cc6c(c5O)/C(=C/OC(=O)Nc5ccc(-c7ccc(N)c(C)c7)cc5C)C(=O)C(O)=C6C(C)C)c(O)c43)c(C)c2)ccc1N [Compound 5] below 20 µM? 0 (no)

Just wondering, is IC50 of Cc1cc2c(c(O)c1-c1c(C)cc3c(c1O)/C(=C/OC(=O)Nc1cccc4c(N)cccc14)C(=O)C(O)=C3C(C)C)/C(=C/OC(=O)Nc1cccc3c(N)cccc13)C(=O)C(O)=C2C(C)C [Compound 4] below 20 µM? 0 (no)

Just wondering, is IC50 of Cc1cc2c(c(O)c1-c1c(C)cc3c(c1O)/C(=C/OC(=O)Nc1ccccc1)C(=O)C(O)=C3C(C)C)/C(=C/OC(=O)Nc1ccccc1)C(=O)C(O)=C2C(C)C [Compound 1] below 20 µM? 1 (yes)

Just wondering, is IC50 of Cc1cc2c(c(O)c1-c1c(C)cc3c(c1O)/C(=C/OC(=O)Nc1ccc(N)cc1)C(=O)C(O)=C3C(C)C)/C(=C/OC(=O)Nc1ccc(N)cc1)C(=O)C(O)=C2C(C)C [Compound 3] below 20 µM? 1 (yes)
